Provenance of the data: the supplement of paper PMC6555819

Test system: PXR:RXRa (NR concentration 270 nM, RXRa partner concentration 90 nM)
Test: PBM binding z-score (relative to random genomic background probes); higher = stronger binding; sequences stand for … in GC…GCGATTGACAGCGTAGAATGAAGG
PBM binding z-score of 2 or higher: y. Under 2: n.

1. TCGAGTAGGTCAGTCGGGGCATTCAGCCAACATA = n
2. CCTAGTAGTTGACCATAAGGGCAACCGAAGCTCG = n
3. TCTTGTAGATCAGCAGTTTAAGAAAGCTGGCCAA = n
4. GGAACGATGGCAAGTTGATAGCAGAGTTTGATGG = n
5. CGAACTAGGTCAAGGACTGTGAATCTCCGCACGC = n
6. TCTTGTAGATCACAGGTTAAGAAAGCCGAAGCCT = n
7. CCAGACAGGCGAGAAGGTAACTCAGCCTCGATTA = n
8. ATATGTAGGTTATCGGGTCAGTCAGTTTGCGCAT = y
9. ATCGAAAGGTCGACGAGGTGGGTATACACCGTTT = y
10. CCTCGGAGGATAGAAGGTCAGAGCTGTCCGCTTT = n

Hi team, for "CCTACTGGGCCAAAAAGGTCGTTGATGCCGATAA" , is the recorded PBM binding z-score at or above 2?
n

====

System: RXRa DBDmut IVT, anti-RXR (DBD mutation: RXRa K156A/R161A, NR concentration 90 nM)
Assay: PBM binding z-score (relative to random genomic background probes); higher = stronger binding; sequences stand for … in GC…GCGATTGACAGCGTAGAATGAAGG
Would you kindly list PBM binding z-score for each of these sequences?
One number for each entry.

1. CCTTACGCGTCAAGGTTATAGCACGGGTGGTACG = 0.122
2. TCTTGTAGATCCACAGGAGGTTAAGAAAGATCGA = 0.48
3. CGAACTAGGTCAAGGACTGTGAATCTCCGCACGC = 1.33
4. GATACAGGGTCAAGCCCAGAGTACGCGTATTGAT = 2.9
5. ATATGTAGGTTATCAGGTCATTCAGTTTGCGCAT = 1.91

Now, please, on to the next sequence.
// PBM binding z-score lookup, key: "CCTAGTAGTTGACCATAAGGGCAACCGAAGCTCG"
-0.02

====

Tested on: PXR homodimer (NR concentration 270 nM)
Experiment: PBM binding z-score (relative to random genomic background probes); higher = stronger binding; sequences stand for … in GC…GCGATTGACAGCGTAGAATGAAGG
PBM binding z-score of 0.4 or higher: T. Under 0.4: F.

1. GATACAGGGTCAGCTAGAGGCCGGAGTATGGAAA = F
2. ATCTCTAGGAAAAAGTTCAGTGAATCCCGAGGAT = T
3. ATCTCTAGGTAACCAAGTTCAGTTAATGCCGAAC = T
4. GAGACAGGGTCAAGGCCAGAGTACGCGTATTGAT = F

Hi team, for "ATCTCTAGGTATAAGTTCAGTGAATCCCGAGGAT" , is the recorded PBM binding z-score at or above 0.4?
T

Hi team, for "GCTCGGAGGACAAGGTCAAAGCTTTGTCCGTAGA" , is the recorded PBM binding z-score at or above 0.4?
T

====

Test system: PPARg:RXRa 270nM:90nM, anti-RXR (NR concentration 270 nM, RXRa partner concentration 90 nM)
Assay: PBM binding z-score (relative to random genomic background probes); higher = stronger binding; sequences stand for … in GC…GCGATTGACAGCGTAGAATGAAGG
Heads up, the class ranges for PBM binding z-score are L (below 1), M (1 to below 6), H (6 or more)

Below are worked cases with known answers.
1) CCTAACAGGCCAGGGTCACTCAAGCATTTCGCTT = M
2) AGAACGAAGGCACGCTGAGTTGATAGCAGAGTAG = L
3) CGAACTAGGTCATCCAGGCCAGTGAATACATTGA = H
4) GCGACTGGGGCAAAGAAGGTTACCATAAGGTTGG = M
5) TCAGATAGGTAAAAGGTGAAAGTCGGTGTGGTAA = H

Field: class (PBM binding z-score) — entry: "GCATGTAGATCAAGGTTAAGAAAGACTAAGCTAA"
M

Field: class (PBM binding z-score) — entry: "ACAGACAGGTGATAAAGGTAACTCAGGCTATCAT"
M

Field: class (PBM binding z-score) — entry: "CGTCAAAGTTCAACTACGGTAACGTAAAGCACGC"
M

Field: class (PBM binding z-score) — entry: "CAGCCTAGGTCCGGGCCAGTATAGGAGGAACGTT"
L

Field: class (PBM binding z-score) — entry: "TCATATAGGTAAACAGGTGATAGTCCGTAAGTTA"
M

Field: class (PBM binding z-score) — entry: "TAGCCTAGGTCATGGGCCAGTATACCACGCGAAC"
M

Field: class (PBM binding z-score) — entry: "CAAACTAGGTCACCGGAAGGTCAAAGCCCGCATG"
H

====

Tested on: RXRa homodimer (NR concentration 180 nM)
Experiment: PBM binding z-score (relative to random genomic background probes); higher = stronger binding; sequences stand for … in GC…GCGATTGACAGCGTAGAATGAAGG
Would you kindly list PBM binding z-score for each of these sequences?
Answers are plain numbers.

Count: 5. Required value per item: PBM binding z-score.
1. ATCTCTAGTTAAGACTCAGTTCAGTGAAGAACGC
2. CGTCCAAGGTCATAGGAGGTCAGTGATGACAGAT
3. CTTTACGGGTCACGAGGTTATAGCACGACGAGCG
4. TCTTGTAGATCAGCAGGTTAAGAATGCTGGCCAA
5. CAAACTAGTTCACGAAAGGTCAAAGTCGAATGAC

0.126
6.5
7.44
0.165
7.49

// PBM binding z-score lookup, key: "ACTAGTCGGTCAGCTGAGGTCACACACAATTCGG"
4.35

====

Tested on: PPARa:RXRa (NR concentration 270 nM, RXRa partner concentration 90 nM)
Test: PBM binding z-score (relative to random genomic background probes); higher = stronger binding; sequences stand for … in GC…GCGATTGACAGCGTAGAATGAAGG
Experimental Endpoint: PBM binding z-score
One number for each entry.

Take a look at these entries with their results.
1. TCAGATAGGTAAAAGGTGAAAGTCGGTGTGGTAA = 4.67
2. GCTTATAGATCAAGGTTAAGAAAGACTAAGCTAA = 1.4
3. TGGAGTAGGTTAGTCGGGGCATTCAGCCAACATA = 1.31
4. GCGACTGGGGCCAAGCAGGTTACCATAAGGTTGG = 0.516

Count: 8. Required value per item: PBM binding z-score.
1. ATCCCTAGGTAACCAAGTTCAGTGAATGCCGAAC
2. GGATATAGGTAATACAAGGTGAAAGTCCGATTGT
3. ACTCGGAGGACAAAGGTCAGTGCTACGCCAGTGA
4. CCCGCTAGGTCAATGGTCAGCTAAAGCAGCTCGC
5. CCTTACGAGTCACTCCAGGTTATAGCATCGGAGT
6. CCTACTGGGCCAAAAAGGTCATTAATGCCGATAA
7. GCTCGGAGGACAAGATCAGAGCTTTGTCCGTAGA
8. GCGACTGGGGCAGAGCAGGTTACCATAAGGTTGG

0.985
2.58
4.64
3.18
0.751
4.39
-0.552
0.462

====

Test system: RARg:RXRa (NR concentration 270 nM, RXRa partner concentration 90 nM)
Assay: PBM binding z-score (relative to random genomic background probes); higher = stronger binding; sequences stand for … in GC…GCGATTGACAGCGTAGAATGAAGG
Would you kindly list PBM binding z-score for each of these sequences?
Numbers only.

Take a look at these entries with their results.
1) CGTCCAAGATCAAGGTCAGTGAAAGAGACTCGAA = 2.83
2) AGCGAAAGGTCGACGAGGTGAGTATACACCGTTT = 4.23
3) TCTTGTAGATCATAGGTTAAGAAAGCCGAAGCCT = 0.785
4) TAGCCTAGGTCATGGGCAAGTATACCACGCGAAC = 4.22
5) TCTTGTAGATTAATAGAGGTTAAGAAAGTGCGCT = 0.95

Count: 6. Required value per item: PBM binding z-score.
1. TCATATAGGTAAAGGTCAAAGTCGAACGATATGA
2. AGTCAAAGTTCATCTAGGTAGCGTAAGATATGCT
3. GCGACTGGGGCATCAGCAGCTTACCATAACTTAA
4. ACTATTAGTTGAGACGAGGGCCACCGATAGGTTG
5. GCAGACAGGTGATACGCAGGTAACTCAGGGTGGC
6. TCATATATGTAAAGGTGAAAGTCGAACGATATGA

1: 6.35; 2: 5.6; 3: -0.328; 4: 0.392; 5: -0.066; 6: 1.45
